Property: melting point; scope: individual molecules

molecule: CC(=O)NCc1ccc(C(=O)O)cc1
melting point: 188 to 190 °C

molecule: CCOc1ccc(Br)cc1S(=O)(=O)Cl
melting point: 109 to 111 °C

molecule: O=C(O)C1Cc2cccc(F)c2O1 (stereo not drawn)
melting point: 126 to 128 °C

molecule: O=C(O)CCc1nnc[nH]1
melting point: 127 to 129 °C

molecule: CC(NC(=S)NN)C1CC1 (stereo not drawn)
melting point: 68 to 70 °C

molecule: O=C(Cc1ccc(Br)cc1)Nc1cccc(C(=O)O)c1
melting point: 291 to 293 °C

molecule: CC(Cl)C(=O)Nc1cccc(Cl)c1 (stereo not drawn)
melting point: 98 to 100 °C

molecule: CNS(=O)(=O)c1ccc(-c2ccc(Cl)c(Cl)c2)c(C(=O)O)c1
melting point: 193 to 195 °C

molecule: CC(=O)c1ccc(S(C)=O)cc1 (stereo not drawn)
melting point: 105 to 107 °C

molecule: Cc1cccc2ncc(C=O)n12
melting point: 128 to 130 °C

molecule: CCC(CO)NC(=O)c1ccc(N)cc1 (stereo not drawn)
melting point: 153 to 155 °C

molecule: O=C(O)C1CC(=O)N(C2CCCCCC2)C1 (stereo not drawn)
melting point: 165 to 167 °C

molecule: Cn1c(=O)[nH]c(=O)c2[nH]c(CCC(=O)O)nc21
melting point: 322 to 324 °C

molecule: Cn1ccnc1C(O)(c1nccn1C)C1CC1
melting point: 166 to 168 °C

molecule: O=C(CCl)N(Cc1cccs1)C1CCS(=O)(=O)C1 (stereo not drawn)
melting point: < 17 °C

molecule: CS(=O)(=O)C1CSCCN1 (stereo not drawn)
melting point: 115 to 117 °C

molecule: Cc1cc(OC(F)F)c(C(=O)O)s1
melting point: 155 to 157 °C

molecule: CC(C)(C)NS(=O)(=O)c1ccc(C(=O)O)cc1
melting point: 181 to 185 °C

molecule: COCCNc1nnnn1C
melting point: 59 to 61 °C

molecule: CCOc1ccc(C(CN)c2c[nH]c3ccccc23)cc1OC (stereo not drawn)
melting point: 114 to 116 °C

molecule: COc1ccc(C(=O)CSc2nc(C)n[nH]2)cc1Br
melting point: 158 to 160 °C

molecule: CC(C#N)CSc1ccccc1N (stereo not drawn)
melting point: 65 to 67 °C

molecule: Cn1c(C(=O)O)cc(Cl)c1Cl
melting point: 178 to 180 °C

molecule: Fc1ccccc1-c1nnc2ccc(Cl)nn12
melting point: 164 to 166 °C

molecule: CC(=O)c1ccc(N2CCCCC2)c(F)c1
melting point: 67 to 69 °C

molecule: Nc1nnc(CC2CC2)o1
melting point: 141 to 143 °C

molecule: CN(C)S(=O)(=O)c1ccc(-c2csc(N)n2)cc1
melting point: 243 to 245 °C

molecule: O=C(O)c1cn(-c2ccccc2)nc1-c1ccc(-c2ccccc2)cc1
melting point: 255 to 257 °C
